Values compiled from patent US20240376090A1.

# measured on: 5-HT2A receptor (Homo sapiens (Human), UniProt P28223)
# Sequence (P28223 whole entry): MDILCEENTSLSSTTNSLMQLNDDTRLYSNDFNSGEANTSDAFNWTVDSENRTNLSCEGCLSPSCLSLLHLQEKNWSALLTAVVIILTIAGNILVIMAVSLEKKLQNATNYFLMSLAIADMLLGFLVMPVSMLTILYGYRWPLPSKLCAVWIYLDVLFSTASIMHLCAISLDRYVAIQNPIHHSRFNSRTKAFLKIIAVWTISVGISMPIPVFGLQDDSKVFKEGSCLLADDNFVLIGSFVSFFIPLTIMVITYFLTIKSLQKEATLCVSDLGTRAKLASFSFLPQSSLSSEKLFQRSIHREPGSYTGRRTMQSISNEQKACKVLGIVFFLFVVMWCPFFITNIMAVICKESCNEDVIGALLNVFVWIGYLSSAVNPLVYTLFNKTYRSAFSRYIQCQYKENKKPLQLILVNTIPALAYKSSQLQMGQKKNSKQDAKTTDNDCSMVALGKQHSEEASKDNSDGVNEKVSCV
# protocol details: Radioligand binding assay ([3H]5-HT competition), 5-HT2A
# assay setup: [3H]5-HT radioligand, membranes of HEK293 cells expressing recombinant 5-HT2A; Ki from IC50 by Cheng-Prusoff; read-out: 5-HT2A serotonin binding Ki value
observation type: pKi
Just the number, please; pKi means minus log10 of the concentration in mol/L.

compound	measured
Cc1nc(C)c(C(=O)Nc2ccc(OC[C@H]3CCCCN3)c(-c3c(C)noc3C)c2)o1	6.63

Entry under review: `CCc1cc(C(=O)Nc2ccc(OC[C@H]3CCCCN3)c(-c3c(C)noc3C)c2)n(C)n1` . Reported pKi? 7.44

Queued: `COC1(CC(=O)Nc2ccc(OC[C@H]3CCCCN3)c(-c3c(C)noc3C)c2)CC1` 7.18

Try the compound `Cc1nc(C)c(C(=O)Nc2ccc(OCCN3CCCC3)c(-c3c(C)noc3C)c2)s1` 6.96

Here is the next compound: `Cc1noc(C)c1-c1cc(NC(=O)Cc2cccc(F)c2)ccc1OC[C@H]1CCCCN1` 8.77

Proceed to `Cc1noc(C)c1-c1cc(NC(=O)C[C@@H]2CCOC2)ccc1OC[C@H]1CCCCN1` 7.92

Follow-up entry: `Cc1noc(C)c1-c1cc(NC(=O)c2ccnn2C)ccc1OCCN1CCCC1` 8.21

Query `Cc1noc(C)c1-c1cc(NC(=O)C2CC2)ccc1OCCN1CC[C@@H](O)C1` next 7.15

Next up: `Cc1noc(C)c1-c1cc(NC(=O)C2(F)CC2)ccc1OC[C@H]1CCCCN1` 8.92

Next compound up: `Cc1noc(C)c1-c1cc(NC(=O)c2ccc(F)cc2)ccc1OC1CNC1` 8.68

Also check `Cc1noc(C)c1-c1cc(NC(=O)c2ccc(F)cc2)ccc1OCCN1CCC1` 8.33

Do the same for `COc1cccc(C(=O)Nc2ccc(OC[C@H]3CCCCN3)c(-c3c(C)noc3C)c2)c1` please 9.04

----------
# measured on: 5-HT2A receptor (Homo sapiens (Human), UniProt P28223)
# protocol details: Radioligand binding assay ([3H]5-HT competition), 5-HT2A
# assay setup: [3H]5-HT radioligand, membranes of HEK293 cells expressing recombinant 5-HT2A; Ki from IC50 by Cheng-Prusoff; read-out: 5-HT2A serotonin binding Ki value
Each record gets a class by Ki: low band = under 5 nM, middle band = from 5 nM up to 30 nM, high band = 30 nM and over

molecule	measured on	class name
Cc1noc(C)c1-c1cc(N(C)C(=O)C2CC2)ccc1OC[C@H]1CCCCN1	5-HT2A receptor (Homo sapiens (Human), UniProt P28223)	high band
COc1ccc(CC(=O)Nc2ccc(OCCN3CCC3)c(-c3c(C)noc3C)c2)cc1	5-HT2A receptor (Homo sapiens (Human), UniProt P28223)	middle band
Cc1noc(C)c1-c1cc(NC(=O)Cc2ccns2)ccc1OC[C@H]1CCCCN1	5-HT2A receptor (Homo sapiens (Human), UniProt P28223)	low band
Cc1noc(C)c1-c1cc(NC(=O)C2CC2)ccc1OCCN1CCC2(CC1)CNC2=O	5-HT2A receptor (Homo sapiens (Human), UniProt P28223)	high band
Cc1noc(C)c1-c1cc(NC(=O)C2CC2)ccc1OCCN1CCC2(CCC(=O)O2)CC1	5-HT2A receptor (Homo sapiens (Human), UniProt P28223)	middle band

Kindly identify the class of `Cc1noc(C)c1-c1cc(NC(=O)C2(CF)CC2)ccc1OC[C@H]1CCCCN1` . middle band

Next up: `Cc1ncsc1C(=O)Nc1ccc(OCCN2CCC2)c(-c2c(C)noc2C)c1` middle band

Try this molecule next: `Cc1nc(C(=O)Nc2ccc(OC[C@H]3CCCCN3)c(-c3c(C)noc3C)c2)c(C)o1` high band

Record: Cc1noc(C)c1-c1cc(NC(=O)C2CC23CCOCC3)ccc1OC[C@H]1CCCCN1 (some centres unmarked) middle band

Could you do the same for `Cc1noc(C)c1-c1cc(NC(=O)C2CC2)ccc1OCCN1CCN(C)C(=O)C1` , please? high band

----------
# measured on: 5-HT2C receptor (Homo sapiens (Human), UniProt P28335)
# Sequence (P28335 33-458): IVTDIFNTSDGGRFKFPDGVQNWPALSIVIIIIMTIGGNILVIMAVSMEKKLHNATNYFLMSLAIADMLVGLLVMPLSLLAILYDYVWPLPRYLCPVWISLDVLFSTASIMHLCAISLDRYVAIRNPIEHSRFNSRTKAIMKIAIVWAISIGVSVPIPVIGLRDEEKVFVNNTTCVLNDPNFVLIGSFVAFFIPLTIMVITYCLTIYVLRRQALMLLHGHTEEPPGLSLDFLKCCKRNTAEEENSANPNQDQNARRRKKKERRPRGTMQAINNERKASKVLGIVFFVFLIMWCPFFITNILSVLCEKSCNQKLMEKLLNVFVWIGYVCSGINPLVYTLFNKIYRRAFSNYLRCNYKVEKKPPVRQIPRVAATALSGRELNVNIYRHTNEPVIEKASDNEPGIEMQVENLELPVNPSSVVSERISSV
# protocol details: HTRF IP-One antagonist assay, 5-HT2C
# assay setup: HEK293 cells stably expressing recombinant human receptor; IP accumulation with 80 nM 5-HT
pIC50: −log10 of the molar value.
Reported pIC50 is given for each of the following molecules.

# example entries with known answers
chemical structure	observation type	measured
CC(=N)NCCOc1ccc(NC(=O)C2CC2)cc1-c1c(C)noc1C	pIC50	5.43
Cc1noc(C)c1-c1cc(NC(=O)C2CC2)ccc1OCCN1CCC2(CCC(=O)O2)CC1	pIC50	≤ 4.00

Pending molecule:
Query (molecule): `Cc1noc(C)c1-c1cc(NC(=O)C2(F)CC2)ccc1OC1CNC1` ; field requested: pIC50 ≤ 4.00

----------
Quick reference for pIC50 among some compounds
# measured on: 5-HT2A receptor (Homo sapiens (Human))
# protocol details: HTRF IP-One antagonist assay, 5-HT2A
# assay setup: HEK293 cells stably expressing recombinant human receptor; IP accumulation with 80 nM 5-HT
Note: pIC50 values are expressed as the negative base-10 logarithm of concentration in M.

compound	observation type	measured
Cc1noc(C)c1-c1cc(NC(=O)C2(F)CC2)ccc1OCCN1CCCC1	pIC50	8.05
Cc1noc(C)c1-c1cc(NC(=O)c2cccc(F)c2)ccc1OC1CNC1	pIC50	7.78

For the compound `Cc1ncsc1C(=O)Nc1ccc(OCCN2CCC2)c(-c2c(C)noc2C)c1` , what pIC50 is on record? 7.89

Repeat with `Cc1noc(C)c1-c1cc(NC(=O)C2CC2)ccc1OC1CNC1` 6.96

Repeat for the following compound: `Cc1nscc1C(=O)Nc1ccc(OC[C@H]2CCCCN2)c(-c2c(C)noc2C)c1` 7.44

Same lookup for `Cc1noc(C)c1-c1cc(NC(=O)Cc2ccccc2)ccc1OC[C@H]1CCCCN1` , please. 7.75

// same read-out, input: `Cc1noc(C)c1-c1cc(NC(=O)c2ccc(F)cc2)ccc1OC1CNC1` 7.35

----------
# measured on: 5-HT2A receptor (Homo sapiens (Human), UniProt P28223)
# protocol details: Radioligand binding assay ([3H]5-HT competition), 5-HT2A
# assay setup: [3H]5-HT radioligand, membranes of HEK293 cells expressing recombinant 5-HT2A; Ki from IC50 by Cheng-Prusoff; read-out: 5-HT2A serotonin binding Ki value
observation type: Ki (nM)
Write the number in nM without appending the unit.

molecule	unit spec	measured
Cc1noc(C)c1-c1cc(NC(=O)Cc2nccs2)ccc1OC[C@H]1CCCCN1 [Compound 213]	nM	4.73
Cc1noc(C)c1-c1cc(NC(=O)C2CC2)ccc1OC[C@H]1CCCN1 [Compound 175]	nM	41.6
CCOC1CC1C(=O)Nc1ccc(OC[C@H]2CCCCN2)c(-c2c(C)noc2C)c1 (stereo partly shown) [Compound 229]	nM	4.72

Then there is this molecule:
I would be grateful if you could share the reported Ki for Cc1noc(C)c1-c1cc(NC(=O)c2ccnn2C)ccc1OCCN1C[C@@H]2C[C@H]1CO2 [Compound 163] . 6.73

----------
# measured on: 5-HT2A receptor (Homo sapiens (Human), UniProt P28223)
# protocol details: HTRF IP-One antagonist assay, 5-HT2A
# assay setup: HEK293 cells stably expressing recombinant human receptor; IP accumulation with 80 nM 5-HT
Each record gets a class by IC50: lo = under 10 nM, med = from 10 nM up to 30 nM, hi = 30 nM and over

compound	measured on	class name
Cc1noc(C)c1-c1cc(NC(=O)Cc2cccc(F)c2)ccc1OC[C@H]1CCCCN1 [Compound 223]	5-HT2A receptor (Homo sapiens (Human), UniProt P28223)	med
Cc1noc(C)c1-c1cc(NC(=O)[C@@H]2C[C@@H]2F)ccc1OC[C@H]1CCCCN1 [Compound 192]	5-HT2A receptor (Homo sapiens (Human), UniProt P28223)	hi
Cc1nonc1C(=O)Nc1ccc(OC[C@H]2CCCCN2)c(-c2c(C)noc2C)c1 [Compound 232]	5-HT2A receptor (Homo sapiens (Human), UniProt P28223)	med

Please let me know in which category the item Cc1noc(C)c1-c1cc(NC(=O)c2ccccc2)ccc1OC[C@H]1CCCCN1 [Compound 218] belongs. med

How about Cc1noc(C)c1-c1cc(NC(=O)C2CC2)ccc1OCCN1CCC2(CCC(=O)O2)CC1 [Compound 141] ? hi

Let us now turn to Cc1noc(C)c1-c1cc(NC(=O)C2(F)CC2)ccc1OCCN1CCC1 [Compound 117] med

----------
# measured on: 5-HT2A receptor (Homo sapiens (Human), UniProt P28223)
# protocol details: Radioligand binding assay ([3H]5-HT competition), 5-HT2A
# assay setup: [3H]5-HT radioligand, membranes of HEK293 cells expressing recombinant 5-HT2A; Ki from IC50 by Cheng-Prusoff; read-out: 5-HT2A serotonin binding Ki value
pKi: −log10 of the molar value.
Note that class boundaries on pKi are bucket 1: < 7; bucket 2: ≥ 7 and < 8; bucket 3: ≥ 8

Assign a bin to Cc1noc(C)c1-c1cc(NC(=O)C2CC2)ccc1OC[C@@H]1CCCCN1 [Compound 170] bucket 2

Now the compound Cc1noc(C)c1-c1cc(NC(=O)C2CC2)ccc1OC[C@@H]1CCCN1 [Compound 176] bucket 1

What about this compound? Cc1nc(C)c(C(=O)Nc2ccc(OC[C@H]3CCCCN3)c(-c3c(C)noc3C)c2)s1 [Compound 194] bucket 2

# repeat for Cc1noc(C)c1-c1cc(NC(=O)c2cccc(C(F)(F)F)c2)ccc1OCCN1CCOCC1 [Compound 165] bucket 3

Continue with Cc1noc(C)c1-c1cc(NC(=O)c2cnn(C)c2C)ccc1OC[C@H]1CCCCN1 [Compound 211] bucket 2

Also Cc1noc(C)c1-c1cc(NC(=O)c2c(F)cnn2C)ccc1OC1CNC1 [Compound 240] , if possible. bucket 3

Another compound to check: COc1cccc(CC(=O)Nc2ccc(OC[C@H]3CCCCN3)c(-c3c(C)noc3C)c2)c1 [Compound 222] bucket 3

How about this compound: Cc1nonc1C(=O)Nc1ccc(OC[C@H]2CCCCN2)c(-c2c(C)noc2C)c1 [Compound 232] bucket 3

Now this one: COCCNCCOc1ccc(NC(=O)C2(F)CC2)cc1-c1c(C)noc1C [Compound 237] bucket 3

Likewise for Cc1noc(C)c1-c1cc(NC(=O)C2CC2)ccc1OCCN1CCC(O)CC1 [Compound 146] ? bucket 3

Same again, this time with Cc1noc(C)c1-c1cc(NC(=O)C2CC2)ccc1OCCN1CCC(CC(=O)O)CC1 [Compound 158] bucket 1
